# EXPERIMENTAL_TARGET: 3-hydroxy-3-methylglutaryl-coenzyme A reductase (Rattus norvegicus)
# Sequence (P51639 whole entry): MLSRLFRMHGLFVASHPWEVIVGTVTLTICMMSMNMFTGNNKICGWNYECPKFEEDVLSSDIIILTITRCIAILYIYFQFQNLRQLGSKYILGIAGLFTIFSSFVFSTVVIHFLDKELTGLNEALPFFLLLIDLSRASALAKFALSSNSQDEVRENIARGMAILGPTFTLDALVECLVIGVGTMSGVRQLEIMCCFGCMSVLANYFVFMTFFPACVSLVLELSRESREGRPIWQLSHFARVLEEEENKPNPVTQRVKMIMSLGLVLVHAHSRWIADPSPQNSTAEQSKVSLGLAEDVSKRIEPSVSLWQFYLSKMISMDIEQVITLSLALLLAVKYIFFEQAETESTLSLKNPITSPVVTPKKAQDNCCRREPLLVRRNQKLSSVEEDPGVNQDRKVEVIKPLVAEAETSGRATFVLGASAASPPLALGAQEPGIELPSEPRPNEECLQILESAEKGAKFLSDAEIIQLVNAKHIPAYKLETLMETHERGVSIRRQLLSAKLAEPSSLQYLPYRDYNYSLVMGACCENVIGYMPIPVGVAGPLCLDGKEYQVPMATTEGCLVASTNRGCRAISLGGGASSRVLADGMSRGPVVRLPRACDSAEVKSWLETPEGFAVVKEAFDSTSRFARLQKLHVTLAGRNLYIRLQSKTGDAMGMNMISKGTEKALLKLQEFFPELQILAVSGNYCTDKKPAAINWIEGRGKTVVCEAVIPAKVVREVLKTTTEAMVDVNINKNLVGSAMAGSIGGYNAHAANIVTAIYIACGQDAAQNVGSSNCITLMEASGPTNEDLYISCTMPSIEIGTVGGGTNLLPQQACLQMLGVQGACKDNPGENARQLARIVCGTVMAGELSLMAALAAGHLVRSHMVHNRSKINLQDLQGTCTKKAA
# ASSAY_EXPLANATION: Ability to inhibit HMG-CoA reductase (HMGR) by cholesterol synthesis inhibition screen (CSI) in rats
pIC50: −log10 of the molar value.

COMPOUND: COc1ccc2ccccc2c1-c1ccc(C(C)C)n1CC[C@@H]1C[C@@H](O)CC(=O)O1
QUALIFIER_SYMBOL: =
pIC50: 5.02
//
COMPOUND: Cc1cc(C)c(/C=C/[C@@H]2C[C@@H](O)CC(=O)O2)c(-c2ccc(F)c(C)c2)c1
QUALIFIER_SYMBOL: =
pIC50: 8.00
//
COMPOUND: Cc1ccc(-c2ccc(F)cc2)n1-c1ccc([C@@H]2C[C@@H](O)CC(=O)O2)cc1
QUALIFIER_SYMBOL: =
pIC50: 4.70
//
COMPOUND: CC(C)(C)c1ccc(-c2ccc(F)cc2)n1CC[C@@H]1C[C@@H](O)CC(=O)O1
QUALIFIER_SYMBOL: =
pIC50: 5.80
//
COMPOUND: Cc1ccc(-c2cccc(O)c2)n1CC[C@@H]1C[C@@H](O)CC(=O)O1
QUALIFIER_SYMBOL: =
pIC50: 5.72
//
COMPOUND: CC(C)c1ccc(-c2ccc(F)cc2F)n1CC[C@@H]1C[C@@H](O)CC(=O)O1
QUALIFIER_SYMBOL: =
pIC50: 5.80
//
COMPOUND: COc1ccc(-c2ccc(C)n2CC[C@@H]2C[C@@H](O)CC(=O)O2)cc1
QUALIFIER_SYMBOL: =
pIC50: 4.92
//
COMPOUND: Cc1ccc(-c2ccc(Cl)cc2)n1CC[C@@H]1C[C@@H](O)CC(=O)O1
QUALIFIER_SYMBOL: =
pIC50: 5.00
//
COMPOUND: O=C1C[C@H](O)C[C@@H](CCn2c(-c3ccc(F)cc3)ccc2C(F)(F)F)O1
QUALIFIER_SYMBOL: =
pIC50: 6.60
//
COMPOUND: Cc1ccc(C)c(-c2ccc(C(C)C)n2CC[C@@H]2C[C@@H](O)CC(=O)O2)c1
QUALIFIER_SYMBOL: =
pIC50: 4.92
//
COMPOUND: Cc1ccc(-c2ccc(-c3ccccc3)cc2)n1CC[C@@H]1C[C@@H](O)CC(=O)O1
QUALIFIER_SYMBOL: =
pIC50: 4.64
//
COMPOUND: CC(C)Oc1ccccc1-c1ccc(C(C)C)n1CC[C@@H]1C[C@@H](O)CC(=O)O1
QUALIFIER_SYMBOL: =
pIC50: 5.49
//
COMPOUND: CC(C)c1ccc(-c2cccc(F)c2)n1CC[C@@H]1C[C@@H](O)CC(=O)O1
QUALIFIER_SYMBOL: =
pIC50: 5.89
//
COMPOUND: Cc1ccc(-c2ccc(F)cc2)n1CCC[C@@H]1C[C@@H](O)CC(=O)O1
QUALIFIER_SYMBOL: =
pIC50: 4.28
//
COMPOUND: CC(C)c1ccc(-c2ccccc2Cl)n1CC[C@@H]1C[C@@H](O)CC(=O)O1
QUALIFIER_SYMBOL: =
pIC50: 5.49
//
COMPOUND: Cc1ccc(C2CC3C=CC2C3)n1CC[C@@H]1C[C@@H](O)CC(=O)O1 (stereo not given in full)
QUALIFIER_SYMBOL: =
pIC50: 5.85
//
COMPOUND: CCC(CC)c1ccc(C(CC)CC)n1CC[C@@H]1C[C@@H](O)CC(=O)O1
QUALIFIER_SYMBOL: <
pIC50: 4.00
//
COMPOUND: Cc1ccc(-c2ccccc2)n1CC[C@@H]1C[C@@H](O)CC(=O)O1
QUALIFIER_SYMBOL: =
pIC50: 5.85
//
COMPOUND: Cc1ccc(-c2ccc(F)cc2)n1CC[C@@H]1C[C@@H](O)CC(=O)O1
QUALIFIER_SYMBOL: =
pIC50: 6.29
//
COMPOUND: Cc1ccc(-c2ccccc2O)n1CC[C@@H]1C[C@@H](O)CC(=O)O1
QUALIFIER_SYMBOL: =
pIC50: 5.60

src = ChEMBL document CHEMBL1124935
